Task for the reader: assign each of the following compounds its reported Photostability Dark (24 h).
- Experiment: Photostability, percentage remaining undegraded under illumination or in the dark
- Recorded conditions: percentage remaining undegraded in the dark, 24 h

Assign Photostability Dark (24 h) to the following record: Cc1cc2c(cc1F)C(=O)[C@]1(O)CCN(c3ccc4ncsc4c3)C1=N2 [BPN-0027196]
>99%

Assign Photostability Dark (24 h) to the following record: Cc1cc2c(cc1C)C(=O)[C@]1(O)CCN(c3ccc(I)cc3)C1=N2 [BPN-0027109]
>99%

Assign Photostability Dark (24 h) to the following record: Cc1cc2c(cc1C)C(=O)[C@]1(O)CCN(c3ccc(Cl)cc3)C1=N2 [BPN-0026662]
>99%

Assign Photostability Dark (24 h) to the following record: O=C1c2cc(C(F)(F)F)ccc2N=C2N(c3ccccc3)CC[C@@]12O [BPN-0025110]
>99%

Assign Photostability Dark (24 h) to the following record: Cc1cc2c(cc1C)C(=O)[C@]1(O)CCN(c3cccs3)C1=N2 [BPN-0026708]
>99%

Assign Photostability Dark (24 h) to the following record: Cc1ccc2c(c1)C(=O)[C@]1(O)CCN(c3cccc(Cl)c3)C1=N2 [BPN-0025059]
>99%

Assign Photostability Dark (24 h) to the following record: Cc1ccc2c(c1)C(=O)[C@]1(O)CCN(c3cc4cccnc4s3)C1=N2 [BPN-0027469]
>99%

Assign Photostability Dark (24 h) to the following record: Cc1ccc2c(c1)C(=O)[C@]1(O)CCN(c3ccn4nccc4c3)C1=N2 [BPN-0027396]
>99%

Assign Photostability Dark (24 h) to the following record: Cc1cc2c(s1)C(=O)[C@]1(O)CCN(c3ccc(C#N)c(C)c3)C1=N2 [BPN-0027072]
>99%

Assign Photostability Dark (24 h) to the following record: Cc1cc2c(s1)N=C1N(c3ccc4ncccc4c3)CC[C@@]1(O)C2=O [BPN-0027216]
>99%

Assign Photostability Dark (24 h) to the following record: Cc1cc2c(s1)N=C1N(c3ccc4ccoc4c3)CC[C@@]1(O)C2=O [BPN-0026639]
>99%

====

- Experiment: Photostability, percentage remaining undegraded under illumination or in the dark
- Recorded conditions: percentage remaining undegraded after 4 hours illumination
Readout label: Photostability 4 hours (%)
Respond with the bare value in %.

Assign Photostability 4 hours to the following record: COc1cccc(N2CC[C@@]3(O)C(=O)c4cc(C)c(C)cc4N=C23)c1 [BPN-0026496]
41.7

Assign Photostability 4 hours to the following record: COc1ccc(N2CC[C@@]3(O)C(=O)c4cc(C(F)(F)F)ccc4N=C23)cc1 [BPN-0026393]
97.9

Assign Photostability 4 hours to the following record: Cc1ccc(N2CC[C@@]3(O)C(=O)c4cc(F)c(C)cc4N=C23)cc1C [BPN-0026607]
98.5

Assign Photostability 4 hours to the following record: Cc1cc2c(cc1C)C(=O)[C@]1(O)CCN(c3ccc4nnsc4c3)C1=N2 [BPN-0028550]
92.7

====

- Measured target: Bovine cardiac myosin (Bos taurus (Bovine))
- Sequence (Q9BE39 whole entry): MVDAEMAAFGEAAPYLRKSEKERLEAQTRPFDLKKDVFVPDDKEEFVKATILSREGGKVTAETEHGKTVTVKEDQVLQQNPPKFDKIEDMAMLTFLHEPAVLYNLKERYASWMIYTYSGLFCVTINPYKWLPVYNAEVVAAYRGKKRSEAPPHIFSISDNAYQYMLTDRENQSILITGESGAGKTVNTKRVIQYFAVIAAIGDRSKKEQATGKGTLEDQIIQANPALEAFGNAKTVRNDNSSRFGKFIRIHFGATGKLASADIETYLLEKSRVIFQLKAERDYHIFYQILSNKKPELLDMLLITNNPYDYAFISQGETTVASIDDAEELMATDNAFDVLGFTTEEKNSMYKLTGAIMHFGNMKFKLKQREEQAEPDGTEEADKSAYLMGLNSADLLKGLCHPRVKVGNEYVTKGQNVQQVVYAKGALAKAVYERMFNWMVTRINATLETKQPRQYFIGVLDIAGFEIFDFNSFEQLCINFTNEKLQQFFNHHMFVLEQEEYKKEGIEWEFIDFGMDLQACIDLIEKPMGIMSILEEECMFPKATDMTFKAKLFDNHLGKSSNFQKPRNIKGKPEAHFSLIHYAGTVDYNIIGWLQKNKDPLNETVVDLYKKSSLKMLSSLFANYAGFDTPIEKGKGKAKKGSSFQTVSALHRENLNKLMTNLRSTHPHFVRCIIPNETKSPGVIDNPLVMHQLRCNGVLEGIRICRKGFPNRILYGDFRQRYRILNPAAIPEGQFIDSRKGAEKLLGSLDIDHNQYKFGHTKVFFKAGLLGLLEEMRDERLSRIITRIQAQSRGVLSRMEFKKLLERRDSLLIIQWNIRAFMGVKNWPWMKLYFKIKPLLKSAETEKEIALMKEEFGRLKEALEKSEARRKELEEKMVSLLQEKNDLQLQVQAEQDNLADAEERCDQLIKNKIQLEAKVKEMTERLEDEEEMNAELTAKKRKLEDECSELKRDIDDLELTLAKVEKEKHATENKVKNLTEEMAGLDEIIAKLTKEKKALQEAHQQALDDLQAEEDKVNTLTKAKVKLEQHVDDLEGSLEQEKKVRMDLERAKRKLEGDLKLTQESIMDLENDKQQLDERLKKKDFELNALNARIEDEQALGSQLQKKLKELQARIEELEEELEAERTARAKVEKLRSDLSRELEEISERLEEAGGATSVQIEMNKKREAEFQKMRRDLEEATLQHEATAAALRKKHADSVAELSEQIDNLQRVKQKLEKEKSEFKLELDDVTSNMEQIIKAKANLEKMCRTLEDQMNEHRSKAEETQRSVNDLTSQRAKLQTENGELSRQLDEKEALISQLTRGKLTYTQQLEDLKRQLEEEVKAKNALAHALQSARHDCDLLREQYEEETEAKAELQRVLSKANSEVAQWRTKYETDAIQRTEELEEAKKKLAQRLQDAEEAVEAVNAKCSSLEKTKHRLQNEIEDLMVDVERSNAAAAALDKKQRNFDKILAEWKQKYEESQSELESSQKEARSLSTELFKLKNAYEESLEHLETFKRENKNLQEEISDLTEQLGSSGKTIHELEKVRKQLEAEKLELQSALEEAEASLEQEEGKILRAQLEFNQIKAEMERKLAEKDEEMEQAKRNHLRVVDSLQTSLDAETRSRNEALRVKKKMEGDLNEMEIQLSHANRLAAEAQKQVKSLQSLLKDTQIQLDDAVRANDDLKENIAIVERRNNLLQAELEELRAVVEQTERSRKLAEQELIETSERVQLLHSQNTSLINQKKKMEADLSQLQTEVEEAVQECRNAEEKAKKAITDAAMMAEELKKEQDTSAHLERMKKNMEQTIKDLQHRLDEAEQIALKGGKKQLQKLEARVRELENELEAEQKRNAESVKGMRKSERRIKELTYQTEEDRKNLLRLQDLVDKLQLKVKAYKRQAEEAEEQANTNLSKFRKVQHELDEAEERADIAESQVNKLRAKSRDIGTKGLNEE
- Sequence (P85100 whole entry partner): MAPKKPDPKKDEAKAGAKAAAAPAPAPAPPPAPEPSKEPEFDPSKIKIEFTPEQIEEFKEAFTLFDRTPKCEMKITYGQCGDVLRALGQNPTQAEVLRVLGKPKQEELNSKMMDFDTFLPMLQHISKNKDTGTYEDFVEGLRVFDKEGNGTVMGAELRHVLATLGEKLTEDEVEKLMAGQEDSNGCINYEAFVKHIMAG
- Sequence (Q3SZE5 whole entry partner): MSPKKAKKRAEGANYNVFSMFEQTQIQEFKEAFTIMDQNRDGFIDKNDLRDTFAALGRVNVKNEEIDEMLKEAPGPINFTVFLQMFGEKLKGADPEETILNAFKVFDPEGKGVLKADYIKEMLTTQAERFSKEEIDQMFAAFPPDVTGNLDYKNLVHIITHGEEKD
- Experiment: Cardiac muscle myosin II actin-activated ATPase assay (NADH-coupled)
- Format: biochemical
- Recorded conditions: cardiac myosin II Ki over nonmuscle myosin II EC50
Friendly reminder: Ratio CMMII:NMII Ki/EC50 below 7 is Y, at or above is N.

Determine if "Cc1ccc2c(c1)C(=O)[C@]1(O)CCN(c3ccc4nccnc4c3)C1=N2" shows Ratio CMMII:NMII Ki/EC50 strictly lower than 7.
N

Determine if "Cc1ccc2c(c1)C(=O)[C@]1(O)CCN(c3ccc4nc(C#N)ccc4c3)C1=N2" shows Ratio CMMII:NMII Ki/EC50 strictly lower than 7.
Y

Determine if Cc1cc2c(cc1C)C(=O)[C@]1(O)CCN(c3cnc(C)c(C)c3)C1=N2 [BPN-0028731] shows Ratio CMMII:NMII Ki/EC50 strictly lower than 7.
N

Determine if "Cc1cc2c(cc1C)C(=O)[C@]1(O)CCN(c3ccc4nnsc4c3)C1=N2" shows Ratio CMMII:NMII Ki/EC50 strictly lower than 7.
N

Determine if "COc1cccc(N2CC[C@@]3(O)C(=O)c4cc(C)ccc4N=C23)c1" shows Ratio CMMII:NMII Ki/EC50 strictly lower than 7.
Y

Determine if "Cc1ccc2c(c1)C(=O)[C@]1(O)CCN(c3ccc4sc(C)nc4c3)C1=N2" shows Ratio CMMII:NMII Ki/EC50 strictly lower than 7.
N

Determine if "Cc1sc2c(c1C)C(=O)[C@]1(O)CCN(c3ccc(I)cc3)C1=N2" shows Ratio CMMII:NMII Ki/EC50 strictly lower than 7.
N

Every entry's value here was drawn from patent US20250163056A1.
